# target: human muscarinic M3 receptor (Homo sapiens)
# Construct: expressed in transfected cells
# Sequence (P20309 whole entry): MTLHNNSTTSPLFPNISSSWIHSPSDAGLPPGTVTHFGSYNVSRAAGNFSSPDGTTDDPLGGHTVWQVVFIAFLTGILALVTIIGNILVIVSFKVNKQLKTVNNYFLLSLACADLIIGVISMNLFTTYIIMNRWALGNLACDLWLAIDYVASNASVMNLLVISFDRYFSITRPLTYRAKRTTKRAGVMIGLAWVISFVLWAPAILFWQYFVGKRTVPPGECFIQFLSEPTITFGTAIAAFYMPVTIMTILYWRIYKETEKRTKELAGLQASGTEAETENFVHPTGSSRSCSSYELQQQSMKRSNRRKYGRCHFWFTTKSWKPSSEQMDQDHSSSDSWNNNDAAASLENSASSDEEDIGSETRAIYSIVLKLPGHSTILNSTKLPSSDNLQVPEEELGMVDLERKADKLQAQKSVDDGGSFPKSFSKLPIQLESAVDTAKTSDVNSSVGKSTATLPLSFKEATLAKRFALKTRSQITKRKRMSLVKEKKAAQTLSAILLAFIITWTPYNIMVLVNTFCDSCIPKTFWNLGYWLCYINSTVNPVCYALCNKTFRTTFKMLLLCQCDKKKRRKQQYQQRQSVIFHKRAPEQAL
# test: Alphascreen Surefire phospho-ERK1/2 functional assay, M3
# Format: cell-based
# test settings: CHO cells stably expressing human M3; phospho-ERK1/2; read-out: pEC50 M3 (converted)
Catalogue of EC50 values
result type: EC50

molecule	target	observed value
CCOC(=O)N1CCC2(CC(N3CCC(C(=O)NC4(C)CCC4)CC3)C2)C1 (mixture of isomers) [Example 9 - mixture of diastereomers]	human muscarinic M3 receptor (Homo sapiens)	> 20 µM
[2H]C([2H])([2H])C1(NC(=O)C2CCN(C3CC4(CCN(C(=O)OCC)C4)C3)CC2)CCC1 (single isomer, unassigned) [Example 21 - Isomer 2]	human muscarinic M3 receptor (Homo sapiens)	> 20 µM
CCOC(=O)N1C2CCC1CC(N1CCC(C(=O)NC3(C)CCC3)CC1)C2 (single isomer, unassigned) [Example 1 - Isomer 2]	human muscarinic M3 receptor (Homo sapiens)	> 20 µM

From: patent US9266857B2
